B1: WDFY2 (parent)
chain: FWNFKQMWDSKKIGLRQHHCRKCG

# Variants of: B1
# experiment summary: protein stability index of a GFP-peptide fusion (GPS, HEK-293T) (PSI 1-6); higher = more stable;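 further: lentivirally expressed fusions sorted by FACS into six bins by GFP to DsRed ratio, PSI derived from sequencing read proportions per bin multiplied by bin number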
# measurement context: c terminus: a fixed tail appended
Entry flag: fulfilled if protein stability index reaches 2; not fulfilled if it does not.

Some entries whose results are on file:
[
  {
    "mutation code": "K11H",
    "answer label": "fulfilled"
  },
  {
    "mutation code": "R16P",
    "answer label": "fulfilled"
  },
  {
    "mutation code": "F1Q",
    "answer label": "fulfilled"
  },
  {
    "mutation code": "M7T",
    "answer label": "fulfilled"
  }
]

Would you say N3P shows protein stability index at minimum 2? not fulfilled

Determine whether measured protein stability index meets or exceeds 2 for M7C fulfilled

Does protein stability index meet or surpass 2 for L15I ? not fulfilled

Has H18Y a recorded protein stability index greater than or equal to 2? fulfilled

In plain terms: is recorded protein stability index at least 2 for R21P ? not fulfilled
